# MEASURED TARGET: RORγ (Homo sapiens, UniProt P51449)
# Sequence (P51449 269-508 limits assumed): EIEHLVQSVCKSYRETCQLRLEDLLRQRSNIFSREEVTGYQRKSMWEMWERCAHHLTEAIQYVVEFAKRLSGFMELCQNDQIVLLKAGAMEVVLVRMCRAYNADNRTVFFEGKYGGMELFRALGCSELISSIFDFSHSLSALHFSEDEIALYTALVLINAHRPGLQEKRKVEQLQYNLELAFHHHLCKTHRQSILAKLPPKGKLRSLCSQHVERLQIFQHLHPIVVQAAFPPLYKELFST
# ASSAY PROCEDURE: Reporter Gene Assay (RGA): inhibition of RORγ transactivation of a luciferase reporter in transiently transfected HEK 293 cells
# MEASUREMENT SETUP: HEK 293 cells cotransfected with pGL4.3 luc2P/GAL4UAS and pBIND Gal4DBD hRORC LBD; 20-24 h incubation; luciferase luminescence
# Method: Reporter Gene Assay (RGA) A nuclear receptor transactivation assay is performed to quantitate the ability of test compounds to inhibit RORγ transactivation of a luciferase reporter. A similar assay is described in: Khan et al., Bioorganic & Medicinal Chemistry Letters 23 (2013), 532-536. […] The plates are read on an Envision plate reader to measure luminescence signal. […]
# reported pIC50; entries follow
pIC50 is defined as minus the log10 of a concentration measured in mol/L.

CCS(=O)(=O)c1ccc(CNC(=O)N2CC(c3ccccc3)C(c3ncccc3C(F)(F)F)C2)cc1 (centres unmarked)
6.00
CCS(=O)(=O)c1ccc(CNC(=O)N2CC(c3ccccc3)C(c3cc(C4CC4)nn3CC3CC3)C2)cc1 (centres unmarked)
5.97
CCS(=O)(=O)c1ccc(CNC(=O)N2CC(c3ccccc3)C(c3cn(C(C)C)nc3C(C)(C)C)C2)nc1 (centres unmarked)
5.89
CNS(=O)(=O)c1ccc(CNC(=O)N2CC(c3ccccc3)C(c3cn(C(C)C)nc3C(C)(C)C)C2)cc1 (centres unmarked)
6.02
CNS(=O)(=O)c1ccc(CNC(=O)N2CC(c3ccccc3)C(c3cn(C4CC4)nc3C(C)(C)C)C2)cc1 (centres unmarked)
5.89
CCS(=O)(=O)c1ccc(CNC(=O)N2CC(c3cccc(C4CC4)n3)C(c3cn(C4CC4)nc3C(C)(C)C)C2)cc1 (centres unmarked)
6.06
CCS(=O)(=O)c1ccc(CNC(=O)N2CC(c3ccccc3)C(c3cc(C(F)(F)F)cnc3OC)C2)cc1 (centres unmarked)
5.94

Field: next compound
Query: Can you share its pIC50? I mean this compound: CCS(=O)(=O)c1ccc(CNC(=O)N2CC(c3ccccc3)C(c3ccccc3OC(F)(F)F)C2)cc1 (centres unmarked)
Result: 6.07
